Molecular target: human Edg-1(S1P1) (Homo sapiens)
Construct: expressed in transfected cells; host or cells: HEK-293
Test: Membrane system binding test: inhibition of [33P]-S1P binding to the membrane fraction of Edg-1(S1P1) gene transferred HEK-293 cells
Settings: 10 μM compound; [33P]-S1P 0.1 nM; membrane fraction of Edg-1(S1P1) gene transferred HEK-293 cells; read-out: Membrane system binding test % inhibition (10 μM)
experimentalEndpoint: inhibition at 10 µM (%)
Just the number in %, nothing appended.

# annotated cases, reported inhibition at 10 µM shown
Req: Find the recorded inhibition at 10 µM belonging to C=CCSc1nnc([C@@H](C)NS(=O)(=O)c2ccc(Cl)cc2)n1CCC and report it.
Resp: 60.2

Req: Looking for the measured inhibition at 10 µM of CCn1c(OC)nnc1[C@@H](C)NS(=O)(=O)c1ccccc1C#N , can you help?
Resp: 45.6

Next up:
Req: Name the recorded inhibition at 10 µM for CCOc1nnc([C@@H](C)NS(=O)(=O)c2ccc3ccccc3c2)n1CC .
Resp: 95.8

###

Entries and their inhibition at 10 µM
Molecular target: human Edg-1(S1P1) (Homo sapiens)
Construct: expressed in transfected cells; host or cells: HEK-293
Assay: Cell system binding test: inhibition of [3H]-S1P binding to Edg-1(S1P1) gene transferred HEK-293 cells
Settings: 10 μM compound, [3H]-S1P 10 nM, read-out: Cell system binding test % inhibition (10 μM)
Procedure: Cells (1×10^5 cells/well) obtained as described above were seeded in poly-L-lysine-coated 96-well plates (Corning Incorporated), and then incubated in a 5% carbon dioxide gas incubator for 12 hours at 37° C. with the use of an MEM medium (Invitrogen Corporation) containing 100 U/mL of penicillin, 100 μg/mL of streptomycin, a 1% MEM nonessential amino acid solution, and 10% FCS. […]
Reply with just the number (in %).

Req: Can you share its inhibition at 10 µM? I mean this compound: CCn1c(OC)nnc1[C@@H](C)NS(=O)(=O)c1cc(F)c(Cl)cc1F [Compound 289]
Resp: 102

Req: Could you tell me which inhibition at 10 µM is on file for CCn1c(OC)nnc1[C@@H](C)NS(=O)(=O)c1cccc(Oc2ccccc2OC)c1 [Compound 324] ?
Resp: 88.1

Req: Sample CCn1c(OC)nnc1[C@@H](C)NS(=O)(=O)c1cccc(Cl)c1C [Compound 267] — what was its inhibition at 10 µM?
Resp: 99.9

Further cases:
Req: Any idea what inhibition at 10 µM was measured for CCCCCCCCS(=O)(=O)N[C@H](C)c1nnc(OC)n1CC [Compound 236] ?
Resp: 98.9

Req: Fill in: inhibition at 10 µM of CCn1c(OC)nnc1[C@@H](C)NS(=O)(=O)c1cc(F)ccc1F [Compound 286] is ___
Resp: 97.5

Req: Which inhibition at 10 µM reading was recorded for the compound CCn1c(OC)nnc1[C@@H](C)NS(=O)(=O)c1ccc(OC(F)(F)F)cc1 [Compound 247] ?
Resp: 95.3

Req: Request the reported inhibition at 10 µM associated with CCn1c(SCCCC(F)(F)F)nnc1[C@@H](C)NS(=O)(=O)c1ccc(Cl)cc1 [Compound 15]
Resp: 91

Req: Name the reported inhibition at 10 µM value associated with the compound CCn1c(SCc2ccc(C(=O)OC)cc2)nnc1[C@@H](C)NS(=O)(=O)c1ccc(Cl)cc1 [Compound 58]
Resp: 91.9

Req: Which inhibition at 10 µM value is on record for CCCCOc1nnc([C@@H](C)NS(=O)(=O)c2ccc(Cl)cc2)n1CC [Compound 396] ?
Resp: 87.9

Req: # query: inhibition at 10 µM of entry CCn1c(OCCCCCCN(C)C)nnc1[C@@H](C)NS(=O)(=O)c1ccc(Cl)cc1 [Compound 189]
Resp: 105

###

Target: human Edg-1(S1P1) (Homo sapiens, UniProt P21453)
Construct: expressed in transfected cells; host or cells: HEK-293
Sequence (P21453 whole entry): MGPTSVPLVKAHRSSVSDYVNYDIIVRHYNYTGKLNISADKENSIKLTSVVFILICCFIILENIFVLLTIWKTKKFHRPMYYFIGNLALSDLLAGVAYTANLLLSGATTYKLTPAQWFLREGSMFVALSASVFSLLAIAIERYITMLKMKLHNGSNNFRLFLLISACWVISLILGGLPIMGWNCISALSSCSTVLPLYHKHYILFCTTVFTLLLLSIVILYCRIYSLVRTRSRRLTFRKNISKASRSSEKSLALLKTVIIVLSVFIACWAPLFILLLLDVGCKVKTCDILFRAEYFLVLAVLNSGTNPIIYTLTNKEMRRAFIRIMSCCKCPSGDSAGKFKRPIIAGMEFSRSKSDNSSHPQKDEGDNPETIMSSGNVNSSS
Assay: Cell system binding test: inhibition of [3H]-S1P binding to Edg-1(S1P1) gene transferred HEK-293 cells
Settings: 10 μM compound, [3H]-S1P 10 nM, read-out: Cell system binding test % inhibition (10 μM)
Here the recorded inhibition at 10 µM is given for each entry.
Note: unit % is implicit; provide only the numeric part.

Worked examples follow.
Req: Name the recorded inhibition at 10 µM for C=CCCSc1nnc([C@@H](C)NS(=O)(=O)c2ccc(Cl)cc2)n1CC .
Resp: 87

Req: Query (compound): CCn1c(OC)nnc1[C@@H](C)NS(=O)(=O)c1ccc(NC(C)=O)c(Cl)c1 ; field requested: inhibition at 10 µM
Resp: 93.9

Req: Data request, read-out inhibition at 10 µM, for CCn1c(OC)nnc1[C@@H](C)NS(=O)(=O)c1ccc2c(c1)OCCO2
Resp: 103

Req: What measured inhibition at 10 µM goes with CCn1c(OC)nnc1[C@@H](C)NS(=O)(=O)c1cnc(Cl)c(Br)c1 ?
Resp: 102

Req: What measured inhibition at 10 µM goes with CCn1c(SCC2CCC2)nnc1[C@@H](C)NS(=O)(=O)c1ccc(Cl)cc1 ?
Resp: 91.5

More entries:
Req: inhibition at 10 µM for CCOc1nnc([C@@H](C)NS(=O)(=O)c2cccc(OC(F)F)c2)n1CC ?
Resp: 100

###

Molecular target: human Edg-1(S1P1) (Homo sapiens)
Construct: expressed in transfected cells; host or cells: HEK-293
Test: Cell system binding test: inhibition of [3H]-S1P binding to Edg-1(S1P1) gene transferred HEK-293 cells
Settings: 10 μM compound, [3H]-S1P 10 nM, read-out: Cell system binding test % inhibition (10 μM)
experimentalEndpoint: inhibition at 10 µM (%)
Field format: number, assumed %, no unit text.

Req: Form field: inhibition at 10 µM recorded for CCn1c(OC)nnc1[C@H](C)NS(=O)(=O)c1ccccc1Br [Compound 204] with human Edg-1(S1P1) (Homo sapiens) (enter value)
Resp: 97.8

Req: Record lookup: for human Edg-1(S1P1) (Homo sapiens), what inhibition at 10 µM belongs to CCn1c(OC)nnc1[C@@H](C)NS(=O)(=O)c1csc2ccccc12 [Compound 368] ?
Resp: 102

New cases:
Req: Form entry - test system: human Edg-1(S1P1) (Homo sapiens); read-out: inhibition at 10 µM; molecule: CCn1c(OC)nnc1[C@@H](C)NS(=O)(=O)c1ccccc1C [Compound 246]
Resp: 98.1

Req: human Edg-1(S1P1) (Homo sapiens) / inhibition at 10 µM / CCn1c(OC)nnc1[C@@H](C)NS(=O)(=O)c1c(C)noc1C [Compound 254] : value?
Resp: 84.6
